System: 786-0 complex spheroids with HUVEC/MSC, growth % test/control
Assay Text: Anticancer human tumor 786-0 cell line growth inhibition [AhR]; active = viability on the fitted dose curve at most 10% of control; inactive = the rest;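 note: compound exposure lasted seven days before the read-out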
Test Parameters: second compound 0.316 µM; first compound 0.03 µM
Classes used: active, inactive

O=C(C=Cn1cnc(-c2cc(C(F)(F)F)cc(C(F)(F)F)c2)n1)NNc1cnccn1 + Cc1cncc(-c2nc(NCCc3c[nH]c4ccccc34)c3ncn(C(C)C)c3n2)c1; inactive
CC(C)CC(NC(=O)C(Cc1ccccc1)NC(=O)c1cnccn1)B(O)O (configuration not stated) + CC(CO)NC(=O)c1cc(-c2ccc(Cl)cc2)nn(-c2cnn(C)c2)c1=O; active
CC(C)CC(NC(=O)C(Cc1ccccc1)NC(=O)c1cnccn1)B(O)O (configuration not stated) + Cc1ccccc1N=Nc1ccc(NC(=O)c2ccnn2C)c(C)c1; inactive
O=C(C=Cn1cnc(-c2cc(C(F)(F)F)cc(C(F)(F)F)c2)n1)NNc1cnccn1 + CC(CO)NC(=O)c1cc(-c2ccc(Cl)cc2)nn(-c2cnn(C)c2)c1=O; inactive
CCN(c1cc(-c2ccc(CN3CCOCC3)cc2)cc(C(=O)NCc2c(C)cc(C)[nH]c2=O)c1C)C1CCOCC1 + CC(CO)NC(=O)c1cc(-c2ccc(Cl)cc2)nn(-c2cnn(C)c2)c1=O; inactive
Nc1ncn(C2CC(O)C(CO)S2)c(=O)n1 (configuration not stated) + Cc1ccccc1N=Nc1ccc(NC(=O)c2ccnn2C)c(C)c1; inactive
CCN(c1cc(-c2ccc(CN3CCOCC3)cc2)cc(C(=O)NCc2c(C)cc(C)[nH]c2=O)c1C)C1CCOCC1 + Cc1cncc(-c2nc(NCCc3c[nH]c4ccccc34)c3ncn(C(C)C)c3n2)c1; inactive
Nc1ncn(C2CC(O)C(CO)S2)c(=O)n1 (configuration not stated) + Cc1cncc(-c2nc(NCCc3c[nH]c4ccccc34)c3ncn(C(C)C)c3n2)c1; inactive
O=C(C=Cn1cnc(-c2cc(C(F)(F)F)cc(C(F)(F)F)c2)n1)NNc1cnccn1 + Cc1ccccc1N=Nc1ccc(NC(=O)c2ccnn2C)c(C)c1; inactive
CC(C)CC(NC(=O)C(Cc1ccccc1)NC(=O)c1cnccn1)B(O)O (configuration not stated) + Cc1cncc(-c2nc(NCCc3c[nH]c4ccccc34)c3ncn(C(C)C)c3n2)c1; active
CCN(c1cc(-c2ccc(CN3CCOCC3)cc2)cc(C(=O)NCc2c(C)cc(C)[nH]c2=O)c1C)C1CCOCC1 + Cc1ccccc1N=Nc1ccc(NC(=O)c2ccnn2C)c(C)c1; inactive
Nc1ncn(C2CC(O)C(CO)S2)c(=O)n1 (configuration not stated) + CC(CO)NC(=O)c1cc(-c2ccc(Cl)cc2)nn(-c2cnn(C)c2)c1=O; inactive

====

Tested on: 786-0 complex spheroids with HUVEC/MSC, growth % test/control
Assay Text: Anticancer human tumor 786-0 cell line growth inhibition [AhR];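 note: compound exposure lasted seven days before the read-out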
Test Parameters: curve of first compound; second compound 1 µM
pIC50: −log10 of the molar value.
Measure Name: pIC50

COc1cc(C2c3cc4c(cc3C(OC3OC5COC(C)OC5C(O)C3O)C3COC(=O)C23)OCO4)cc(OC)c1O (centres undefined) + Cc1ccccc1N=Nc1ccc(NC(=O)c2ccnn2C)c(C)c1; 5.97
COc1cc(C2c3cc4c(cc3C(OC3OC5COC(C)OC5C(O)C3O)C3COC(=O)C23)OCO4)cc(OC)c1O (centres undefined) + Cc1cncc(-c2nc(NCCc3c[nH]c4ccccc34)c3ncn(C(C)C)c3n2)c1; 5.88
Nc1ccccc1NC(=O)c1ccc(CNC(=O)OCc2cccnc2)cc1 + Cc1cncc(-c2nc(NCCc3c[nH]c4ccccc34)c3ncn(C(C)C)c3n2)c1; 5.17
COc1cc(Nc2ncc3c(n2)-c2ccc(Cl)cc2C(c2c(F)cccc2OC)=NC3)ccc1C(=O)O + Cc1ccccc1N=Nc1ccc(NC(=O)c2ccnn2C)c(C)c1; 5.42
CC[C@@]1(O)C(=O)OCc2c1cc1n(c2=O)Cc2cc3c(CN(C)C)c(O)ccc3nc2-1 + CC(CO)NC(=O)c1cc(-c2ccc(Cl)cc2)nn(-c2cnn(C)c2)c1=O; 7.22
COc1cc(C2c3cc4c(cc3C(OC3OC5COC(C)OC5C(O)C3O)C3COC(=O)C23)OCO4)cc(OC)c1O (centres undefined) + CC(CO)NC(=O)c1cc(-c2ccc(Cl)cc2)nn(-c2cnn(C)c2)c1=O; 6.37
O=C(C=Cc1cccc(S(=O)(=O)Nc2ccccc2)c1)NO + CC(CO)NC(=O)c1cc(-c2ccc(Cl)cc2)nn(-c2cnn(C)c2)c1=O; 5.26
CC1COCCN1c1cc(C2(S(C)(=N)=O)CC2)nc(-c2ccnc3[nH]ccc23)n1 (centres undefined) + Cc1ccccc1N=Nc1ccc(NC(=O)c2ccnn2C)c(C)c1; 5.19
CCc1c2c(nc3ccc(O)cc13)-c1cc3c(c(=O)n1C2)COC(=O)[C@]3(O)CC + Cc1ccccc1N=Nc1ccc(NC(=O)c2ccnn2C)c(C)c1; 8.19
CC[C@@]1(O)C(=O)OCc2c1cc1n(c2=O)Cc2cc3c(CN(C)C)c(O)ccc3nc2-1 + Cc1cncc(-c2nc(NCCc3c[nH]c4ccccc34)c3ncn(C(C)C)c3n2)c1; 7.25
O=C(C=Cn1cnc(-c2cc(C(F)(F)F)cc(C(F)(F)F)c2)n1)NNc1cnccn1 + Cc1cncc(-c2nc(NCCc3c[nH]c4ccccc34)c3ncn(C(C)C)c3n2)c1; 6.25
CC(C)CC(NC(=O)C(Cc1ccccc1)NC(=O)c1cnccn1)B(O)O (centres undefined) + Cc1cncc(-c2nc(NCCc3c[nH]c4ccccc34)c3ncn(C(C)C)c3n2)c1; 7.77
Nc1ccccc1NC(=O)c1ccc(CNC(=O)OCc2cccnc2)cc1 + Cc1ccccc1N=Nc1ccc(NC(=O)c2ccnn2C)c(C)c1; 5.14
CCc1c2c(nc3ccc(O)cc13)-c1cc3c(c(=O)n1C2)COC(=O)[C@]3(O)CC + Cc1cncc(-c2nc(NCCc3c[nH]c4ccccc34)c3ncn(C(C)C)c3n2)c1; 8.29
Nc1ccccc1NC(=O)c1ccc(CNC(=O)OCc2cccnc2)cc1 + CC(CO)NC(=O)c1cc(-c2ccc(Cl)cc2)nn(-c2cnn(C)c2)c1=O; 5.32
